Target: IKZF2 (Homo sapiens, UniProt Q96SW2+Q9UKS7)
Sequence (Q9UKS7 1-500 isoform Q9UKS7-2): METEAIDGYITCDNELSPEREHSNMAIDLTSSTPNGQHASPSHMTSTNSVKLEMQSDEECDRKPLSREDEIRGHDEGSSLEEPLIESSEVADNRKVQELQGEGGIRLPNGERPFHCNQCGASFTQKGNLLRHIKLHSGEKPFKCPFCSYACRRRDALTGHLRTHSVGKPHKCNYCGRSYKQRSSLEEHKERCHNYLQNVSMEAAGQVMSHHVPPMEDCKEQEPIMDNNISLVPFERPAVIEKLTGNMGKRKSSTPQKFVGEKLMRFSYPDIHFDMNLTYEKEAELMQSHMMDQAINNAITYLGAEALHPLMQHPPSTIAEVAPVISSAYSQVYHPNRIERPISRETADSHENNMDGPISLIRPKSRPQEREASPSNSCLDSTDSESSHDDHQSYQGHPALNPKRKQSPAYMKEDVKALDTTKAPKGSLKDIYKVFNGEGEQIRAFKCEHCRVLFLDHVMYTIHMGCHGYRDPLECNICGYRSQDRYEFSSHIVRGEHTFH
Sequence (Q96SW2 whole entry): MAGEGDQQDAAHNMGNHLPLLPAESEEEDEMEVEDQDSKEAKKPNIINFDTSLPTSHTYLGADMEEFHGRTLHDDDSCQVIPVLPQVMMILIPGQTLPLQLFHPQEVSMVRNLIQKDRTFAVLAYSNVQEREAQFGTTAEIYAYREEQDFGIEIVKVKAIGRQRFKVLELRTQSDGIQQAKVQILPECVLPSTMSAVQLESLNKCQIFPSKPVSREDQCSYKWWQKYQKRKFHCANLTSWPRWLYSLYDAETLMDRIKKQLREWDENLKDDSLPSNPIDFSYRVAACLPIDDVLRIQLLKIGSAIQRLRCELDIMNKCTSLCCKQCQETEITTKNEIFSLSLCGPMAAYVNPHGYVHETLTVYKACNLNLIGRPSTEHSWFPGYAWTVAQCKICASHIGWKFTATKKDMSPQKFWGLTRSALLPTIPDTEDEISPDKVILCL
Sequence (Q16531 whole entry partner): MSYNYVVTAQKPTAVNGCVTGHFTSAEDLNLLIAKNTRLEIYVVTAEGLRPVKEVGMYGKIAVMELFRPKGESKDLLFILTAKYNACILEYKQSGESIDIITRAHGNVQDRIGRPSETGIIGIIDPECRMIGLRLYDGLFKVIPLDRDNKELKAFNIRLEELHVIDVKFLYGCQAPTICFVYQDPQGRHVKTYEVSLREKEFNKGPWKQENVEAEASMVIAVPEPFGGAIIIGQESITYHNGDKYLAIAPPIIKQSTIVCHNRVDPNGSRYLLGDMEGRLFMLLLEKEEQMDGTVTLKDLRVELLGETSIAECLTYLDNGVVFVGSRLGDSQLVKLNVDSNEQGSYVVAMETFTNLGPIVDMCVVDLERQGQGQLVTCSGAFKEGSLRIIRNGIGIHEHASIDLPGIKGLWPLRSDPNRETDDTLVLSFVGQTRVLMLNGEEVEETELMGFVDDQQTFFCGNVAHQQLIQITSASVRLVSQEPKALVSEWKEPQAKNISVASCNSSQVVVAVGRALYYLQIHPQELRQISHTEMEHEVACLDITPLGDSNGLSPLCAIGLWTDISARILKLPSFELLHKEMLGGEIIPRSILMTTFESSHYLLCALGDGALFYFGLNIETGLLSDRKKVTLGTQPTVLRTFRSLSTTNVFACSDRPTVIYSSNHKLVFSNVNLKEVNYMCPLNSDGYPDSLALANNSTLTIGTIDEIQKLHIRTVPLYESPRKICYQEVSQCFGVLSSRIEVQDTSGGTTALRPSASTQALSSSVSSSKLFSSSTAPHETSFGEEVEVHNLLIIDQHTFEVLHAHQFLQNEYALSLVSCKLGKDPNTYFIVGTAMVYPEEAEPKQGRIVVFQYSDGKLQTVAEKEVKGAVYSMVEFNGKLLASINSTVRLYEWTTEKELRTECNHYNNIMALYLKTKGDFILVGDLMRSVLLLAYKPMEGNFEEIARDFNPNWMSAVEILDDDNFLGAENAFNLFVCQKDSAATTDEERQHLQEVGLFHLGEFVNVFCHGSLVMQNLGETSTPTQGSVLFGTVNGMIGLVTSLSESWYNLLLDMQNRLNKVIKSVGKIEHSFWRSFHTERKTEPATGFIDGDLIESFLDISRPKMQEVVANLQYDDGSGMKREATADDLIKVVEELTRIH
Assay: HEK293 HiBiT in vitro degradation of IKZF2
Type: cell-based
Parameters: expressed in transfected cells
Details: HEK293 HiBiT, 18-24 hr incubation, normalized to DMSO control; read-out: IKZF2 EC50

compound	system	unit	DC50
CCOCC(C)N[C@H]1CCCC[C@@H]1Cc1ccc2c(c1)CN(C1CCC(=O)NC1=O)C2=O (stereo partly drawn)	IKZF2 (Homo sapiens, UniProt Q96SW2+Q9UKS7)	nM	16
O=C1CC[C@@H](N2Cc3c(ccc(C[C@H]4OCCC[C@@H]4N[C@H]4CC[C@@H](F)CC4)c3F)C2=O)C(=O)N1 (single isomer, unassigned)	IKZF2 (Homo sapiens, UniProt Q96SW2+Q9UKS7)	nM	5
O=C1CC[C@H](N2Cc3cc(C[C@H]4CCCC[C@@H]4NC4CCCCC4)ccc3C2=O)C(=O)N1 (single isomer, unassigned)	IKZF2 (Homo sapiens, UniProt Q96SW2+Q9UKS7)	nM	3

----------
Molecular target: IKZF2 (Homo sapiens, UniProt Q96SW2+Q9UKS7)
Experiment: HEK293 HiBiT in vitro degradation of IKZF2
Format: cell-based
Set-up: expressed in transfected cells
Settings: HEK293, HEK293 HiBiT; maximum degradation at the highest concentration tested
Item-by-item account of Dmax

molecule	unit	Dmax
O=C1CCC(N2Cc3cc(C[C@H]4CCCC[C@@H]4N4CC(Oc5ccccc5)C4)ccc3C2=O)C(=O)N1 (stereo partly shown)	%	90
O=C1CCC(N2Cc3cc(C[C@H]4C[C@@H](O)CC[C@@H]4NC4CCC(F)(F)CC4)ccc3C2=O)C(=O)N1 (stereo partly shown)	%	93
CC(N[C@H]1CCCC[C@@H]1Cc1ccc2c(c1)CN(C1CCC(=O)NC1=O)C2=O)C1CC(F)(F)C1 (single isomer, unassigned)	%	97
O=C1CCC(N2Cc3cc(C[C@H]4CCCC[C@@H]4NC4CCCCC4)ccc3C2=O)C(=O)N1 (stereo partly shown)	%	96
CC(N[C@H]1CCCC[C@@H]1Cc1ccc2c(c1)CN(C1CCC(=O)NC1=O)C2=O)C1CCC1 (stereo partly shown)	%	95
CC(C)N[C@H]1CC(F)(F)CC[C@@H]1Cc1ccc2c(c1)CN(C1CCC(=O)NC1=O)C2=O (stereo partly shown)	%	97
C[C@]1(O)CC[C@H](NC2CCC(F)(F)CC2)[C@@H](Cc2ccc3c(c2)CN(C2CCC(=O)NC2=O)C3=O)C1 (stereo partly shown)	%	97
CC(C)(C)CCN(CCC(C)(C)C)[C@H]1CCCC[C@@H]1Cc1ccc2c(c1F)CN(C1CCC(=O)NC1=O)C2=O (stereo partly shown)	%	75
CC1(C)CC2(CC(N[C@H]3CCCC[C@@H]3Cc3ccc4c(c3)CN(C3CCC(=O)NC3=O)C4=O)C2)C1 (stereo partly shown)	%	94
O=C1CCC(N2Cc3cc(C[C@H]4CCCC[C@@H]4NCc4ccccc4)c(F)cc3C2=O)C(=O)N1 (stereo partly shown)	%	92
CC(C)(C)CCN[C@H]1CCCC[C@@H]1Cc1ccc2c(c1)CN(C1CCC(=O)NC1=O)C2=O (stereo partly shown)	%	96
O=C1CCC(N2Cc3cc(C[C@H]4OCCC[C@@H]4NC4CCC(F)(F)CC4)ccc3C2=O)C(=O)N1 (stereo partly shown)	%	82
COC(C)(C)CCN[C@H]1CCCC[C@@H]1Cc1ccc2c(c1)CN(C1CCC(=O)NC1=O)C2=O (stereo partly shown)	%	97
O=C1CCC(N2Cc3c(ccc(C[C@H]4CCCC[C@@H]4NC4CCOCC4)c3F)C2=O)C(=O)N1 (stereo partly shown)	%	98
Cn1cc(CN[C@H]2CCCC[C@@H]2Cc2ccc3c(c2)CN(C2CCC(=O)NC2=O)C3=O)cn1 (stereo partly shown)	%	78
O=C1CCC(N2Cc3cc(C[C@H]4CCCC[C@@H]4NCc4cc(F)cc(F)c4)ccc3C2=O)C(=O)N1 (stereo partly shown)	%	95
CC(C)CCN[C@H]1CCCC[C@@H]1Cc1ccc2c(c1)CN(C1CCC(=O)NC1=O)C2=O (stereo partly shown)	%	95
O=C1CCC(N2Cc3cc(C[C@H]4CCCC[C@@H]4NC4CCc5cn[nH]c5C4)ccc3C2=O)C(=O)N1 (stereo partly shown) [Example 165]	%	98
CN(C1CCC(F)(F)CC1)[C@H]1CCCC[C@@H]1Cc1ccc2c(c1)CN(C1CCC(=O)NC1=O)C2=O (stereo partly shown)	%	88
O=C1CCC(N2Cc3c(ccc(C[C@H]4OCCC[C@@H]4NC4CCCC4)c3F)C2=O)C(=O)N1 (stereo partly shown)	%	94
O=C1CCC(N2Cc3c(ccc(C[C@H]4CCCC[C@@H]4NCC4CC(F)(F)C4)c3F)C2=O)C(=O)N1 (stereo partly shown)	%	96
O=C1CCC(N2Cc3cc(C[C@H]4CCCC[C@@H]4NC4CCOC4)ccc3C2=O)C(=O)N1 (stereo partly shown)	%	95
O=C1CCC(N2Cc3c(ccc(C[C@H]4OCCC[C@@H]4NC4CCc5cn[nH]c5C4)c3F)C2=O)C(=O)N1 (single isomer, unassigned) [Example 360]	%	90
O=C1CCC(N2Cc3cc(C[C@H]4C[C@@H](F)CC[C@@H]4NC4CCC(F)(F)CC4)ccc3C2=O)C(=O)N1 (stereo partly shown)	%	87
CC(CC1CC1)N[C@H]1CCCC[C@@H]1Cc1ccc2c(c1)CN(C1CCC(=O)NC1=O)C2=O (stereo partly shown) [Example 204]	%	97
O=C1CC[C@H](N2Cc3c(ccc(C[C@H]4CCCC[C@@H]4NC4CCC(F)(F)CC4)c3F)C2=O)C(=O)N1 (single isomer, unassigned)	%	97
[2H]c1c([2H])c([2H])c(C([2H])([2H])N[C@H]2CCCC[C@@H]2Cc2ccc3c(c2)CN(C2CCC(=O)NC2=O)C3=O)c([2H])c1[2H] (single isomer, unassigned)	%	87
CC(N[C@H]1CCCC[C@@H]1Cc1ccc2c(c1)CN(C1CCC(=O)NC1=O)C2=O)C12CC(C1)C2 (stereo partly shown)	%	98

Where do the numbers come from? From patent US11897862B2.
